Hello, the source for this data is paper PMC4628873, in case you need it.

# subject_of_test: α2A (Homo sapiens)
# Sequence (P08913 whole entry): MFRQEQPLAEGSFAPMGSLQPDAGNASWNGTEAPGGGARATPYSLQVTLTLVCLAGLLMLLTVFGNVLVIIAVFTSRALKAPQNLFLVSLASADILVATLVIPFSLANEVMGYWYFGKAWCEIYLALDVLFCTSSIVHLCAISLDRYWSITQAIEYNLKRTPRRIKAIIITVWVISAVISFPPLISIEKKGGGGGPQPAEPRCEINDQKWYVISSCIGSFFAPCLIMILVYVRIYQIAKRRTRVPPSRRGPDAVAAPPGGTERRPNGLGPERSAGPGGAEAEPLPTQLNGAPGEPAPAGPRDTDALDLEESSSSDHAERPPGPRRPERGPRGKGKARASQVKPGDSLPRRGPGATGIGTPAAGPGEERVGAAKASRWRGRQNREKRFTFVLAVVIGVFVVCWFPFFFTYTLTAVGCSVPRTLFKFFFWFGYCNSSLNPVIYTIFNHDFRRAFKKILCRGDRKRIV
pKi: −log10 of the molar value.
assay_metric: pKi

Task item: # return recorded pKi for entry COc1cc2c3c(c1OCc1ccc(Br)cc1)-c1cc4c(cc1CC3N(C)CC2)OCO4 (stereo not shown) [Compound 8k]
Reply: 6.05 to 6.52

---

# subject_of_test: 5-HT6 (Homo sapiens, UniProt P50406)
# Sequence (P50406 whole entry, species assumed): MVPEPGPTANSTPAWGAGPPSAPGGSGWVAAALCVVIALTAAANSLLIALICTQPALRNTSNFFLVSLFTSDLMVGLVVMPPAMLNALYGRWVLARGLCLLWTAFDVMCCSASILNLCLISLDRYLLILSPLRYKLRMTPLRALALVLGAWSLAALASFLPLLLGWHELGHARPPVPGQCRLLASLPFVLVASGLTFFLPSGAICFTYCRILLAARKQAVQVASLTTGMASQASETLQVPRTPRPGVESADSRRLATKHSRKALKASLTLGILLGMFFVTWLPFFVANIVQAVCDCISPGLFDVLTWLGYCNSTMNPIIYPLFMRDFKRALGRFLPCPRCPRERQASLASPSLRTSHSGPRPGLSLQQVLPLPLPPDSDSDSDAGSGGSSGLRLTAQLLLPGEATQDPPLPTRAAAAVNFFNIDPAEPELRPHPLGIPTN
pKi: −log10 of the molar value.
assay_metric: pKi

Task item: Name the recorded pKi of the item COc1cc2c3c(c1OCc1ccc(Br)cc1)-c1cc4c(cc1CC3N(C)CC2)OCO4 (stereo not shown) in your answer.
Reply: 6.05 to 6.52

---

Protein target, amino acids: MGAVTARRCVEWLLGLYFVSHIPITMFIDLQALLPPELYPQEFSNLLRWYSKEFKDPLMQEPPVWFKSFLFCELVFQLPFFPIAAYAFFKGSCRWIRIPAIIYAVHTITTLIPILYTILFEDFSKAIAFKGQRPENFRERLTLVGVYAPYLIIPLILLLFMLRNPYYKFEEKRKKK
assay_metric: Ki

Task item: Tell me measured Ki for COc1cc2c3c(c1OCc1ccc(Br)cc1)-c1cc4c(cc1CC3N(C)CC2)OCO4 (stereo not shown) please.
Reply: 300 to 900 nM

---

# subject_of_test: α1A adrenergic receptor (Homo sapiens)
# Sequence (P35348 whole entry): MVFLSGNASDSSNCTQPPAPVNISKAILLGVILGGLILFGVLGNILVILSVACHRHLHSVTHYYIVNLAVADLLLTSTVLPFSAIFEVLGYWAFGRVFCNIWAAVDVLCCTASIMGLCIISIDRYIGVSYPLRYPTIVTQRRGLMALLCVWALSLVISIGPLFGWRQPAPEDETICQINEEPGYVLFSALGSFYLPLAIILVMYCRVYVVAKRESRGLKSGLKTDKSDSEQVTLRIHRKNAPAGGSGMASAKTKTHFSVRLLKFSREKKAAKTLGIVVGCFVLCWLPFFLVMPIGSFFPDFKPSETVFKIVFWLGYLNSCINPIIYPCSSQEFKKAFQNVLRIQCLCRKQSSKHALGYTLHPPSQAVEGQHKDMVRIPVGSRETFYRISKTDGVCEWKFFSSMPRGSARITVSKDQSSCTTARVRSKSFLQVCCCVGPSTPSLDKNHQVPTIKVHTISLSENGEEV
# procedure_details: FLIPR calcium mobilization functional assay, α1A adrenergic receptor
Recorded Kb by entry

{"molecule": "COc1cc2c3c(c1OCc1ccc(Br)cc1)-c1cc4c(cc1CC3N(C)CC2)OCO4 (centres unmarked) [Compound 8k]", "Kb": "> 10000 nM"}
{"molecule": "C=CCOc1c(OC)cc2c3c1-c1cc4c(cc1CC3N(C)CC2)OCO4 (centres unmarked) [Compound 5]", "Kb": "> 10000 nM"}
{"molecule": "C=C(C)COc1c(OC)cc2c3c1-c1cc4c(cc1CC3N(C)CC2)OCO4 (centres unmarked) [Compound 8b]", "Kb": "> 10000 nM"}
{"molecule": "COc1cc2c3c(c1OCc1ccc(C(F)(F)F)cc1)-c1cc4c(cc1CC3N(C)CC2)OCO4 (centres unmarked) [Compound 8j]", "Kb": "> 10000 nM"}
{"molecule": "COc1cc2c3c(c1OC)-c1cc4c(cc1CC3N(C)CC2)OCO4 (centres unmarked) [Compound 4, nantenine, reference compound]", "Kb": "36 nM"}

Task item: // fetch Kb given entry COc1cc2c3c(c1OCC=C(C)C)-c1cc4c(cc1CC3N(C)CC2)OCO4 (centres unmarked) [Compound 8c]
Reply: > 10000 nM

Task item: // Input: COc1cc2c3c(c1OCc1ccc(Cl)cc1)-c1cc4c(cc1CC3N(C)CC2)OCO4 (centres unmarked) [Compound 8i] . Output its Kb only.
Reply: > 10000 nM

Task item: // fetch Kb given entry COc1cc2c3c(c1OC/C=C/c1ccccc1)-c1cc4c(cc1CC3N(C)CC2)OCO4 (centres unmarked) [Compound 8e]
Reply: > 10000 nM

Task item: Determine from records and report Kb for COc1cc2c3c(c1OCC#N)-c1cc4c(cc1CC3N(C)CC2)OCO4 (centres unmarked) [Compound 8g]
Reply: 711 nM

Task item: Give Kb for COc1cc2c3c(c1OCCOC(C)=O)-c1cc4c(cc1CC3N(C)CC2)OCO4 (centres unmarked) [Compound 8h]
Reply: 591 nM

Task item: Kindly indicate its recorded Kb. Item: C/C=C/COc1c(OC)cc2c3c1-c1cc4c(cc1CC3N(C)CC2)OCO4 (centres unmarked) [Compound 8a]
Reply: 1980 nM

---

# subject_of_test: UniProt:P28223
# procedure_details: FLIPR calcium mobilization functional assay, human 5-HT2A receptor
# setup_conditions: ratio of Ke α1A / Ke 5-HT2A
assay_metric: Selectivity α1A/5-HT2A

Here are 3 molecules together with their reported answers.
{"molecule": "COc1cc2c3c(c1OCc1ccc(Br)cc1)-c1cc4c(cc1CC3N(C)CC2)OCO4 (stereo not shown) [Compound 8k]", "reported_measurement": ">1,086"}
{"molecule": "COc1cc2c3c(c1OCC#N)-c1cc4c(cc1CC3N(C)CC2)OCO4 (stereo not shown) [Compound 8g]", "reported_measurement": "< 0.07"}
{"molecule": "COc1cc2c3c(c1OCc1ccc(C(F)(F)F)cc1)-c1cc4c(cc1CC3N(C)CC2)OCO4 (stereo not shown) [Compound 8j]", "reported_measurement": "> 4.1"}

Task item: Look up and report Selectivity α1A/5-HT2A, with UniProt:P28223 as system, for COc1cc2c3c(c1OCc1ccc(Cl)cc1)-c1cc4c(cc1CC3N(C)CC2)OCO4 (stereo not shown) [Compound 8i]
Reply: > 1.7

---

# subject_of_test: 5-HT2C (Homo sapiens, UniProt P28335)
# Sequence (P28335 33-458, species assumed): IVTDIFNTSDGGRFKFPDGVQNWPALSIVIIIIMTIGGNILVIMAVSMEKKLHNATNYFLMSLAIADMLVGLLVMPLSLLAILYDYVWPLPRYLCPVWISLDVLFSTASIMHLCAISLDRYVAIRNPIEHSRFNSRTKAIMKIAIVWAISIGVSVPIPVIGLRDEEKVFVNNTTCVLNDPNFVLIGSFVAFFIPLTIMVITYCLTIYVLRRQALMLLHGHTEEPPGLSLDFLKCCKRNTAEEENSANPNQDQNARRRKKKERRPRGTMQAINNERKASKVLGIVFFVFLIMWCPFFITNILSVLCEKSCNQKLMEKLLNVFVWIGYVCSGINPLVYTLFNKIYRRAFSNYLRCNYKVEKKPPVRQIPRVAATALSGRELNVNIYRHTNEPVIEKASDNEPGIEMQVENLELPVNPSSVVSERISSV
pKi: −log10 of the molar value.
assay_metric: pKi

Task item: Fetch value of pKi on 5-HT2C (Homo sapiens, UniProt P28335) for COc1cc2c3c(c1OCc1ccc(Br)cc1)-c1cc4c(cc1CC3N(C)CC2)OCO4 (stereo not shown) [Compound 8k] .
Reply: 6.05 to 6.52

---

Listing: Kb of selected molecules
# subject_of_test: 5-HT2A receptor (Homo sapiens)
# Sequence (P28223 whole entry): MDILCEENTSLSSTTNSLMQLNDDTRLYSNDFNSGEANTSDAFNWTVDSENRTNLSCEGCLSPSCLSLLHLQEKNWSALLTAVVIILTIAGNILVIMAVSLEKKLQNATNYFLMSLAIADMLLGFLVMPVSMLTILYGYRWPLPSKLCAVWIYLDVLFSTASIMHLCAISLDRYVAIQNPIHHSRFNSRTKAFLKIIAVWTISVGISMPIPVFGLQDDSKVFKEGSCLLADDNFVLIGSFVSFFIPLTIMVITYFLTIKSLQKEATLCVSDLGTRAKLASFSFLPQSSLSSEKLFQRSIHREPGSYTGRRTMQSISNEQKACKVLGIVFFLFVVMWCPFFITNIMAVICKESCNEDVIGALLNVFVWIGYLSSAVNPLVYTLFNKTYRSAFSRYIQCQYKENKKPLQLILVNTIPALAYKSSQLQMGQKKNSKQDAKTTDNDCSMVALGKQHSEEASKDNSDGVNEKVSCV
# procedure_details: FLIPR calcium mobilization functional assay, human 5-HT2A receptor
Give your result in nM as a bare value.

{"molecule": "COc1cc2c3c(c1OCCOC(C)=O)-c1cc4c(cc1CC3N(C)CC2)OCO4 (stereo not drawn)", "unit_of_measure": "nM", "Kb": 1910}
{"molecule": "COc1cc2c3c(c1OCc1ccc(Br)cc1)-c1cc4c(cc1CC3N(C)CC2)OCO4 (stereo not drawn)", "unit_of_measure": "nM", "Kb": 9.2}
{"molecule": "COc1cc2c3c(c1OCc1ccc(Cl)cc1)-c1cc4c(cc1CC3N(C)CC2)OCO4 (stereo not drawn)", "unit_of_measure": "nM", "Kb": 6050}

--- query ---
Task item: Specify Kb for COc1cc2c3c(c1OCc1ccc(C(F)(F)F)cc1)-c1cc4c(cc1CC3N(C)CC2)OCO4 (stereo not drawn) and stop.
Reply: 2460
